# Target under test: T1, human CD71 extracellular domain (human, UniProt P02786 89-760)
# T1 construct: also called hCD71; CD71-ECD
# T1 sequence (P02786 89-760): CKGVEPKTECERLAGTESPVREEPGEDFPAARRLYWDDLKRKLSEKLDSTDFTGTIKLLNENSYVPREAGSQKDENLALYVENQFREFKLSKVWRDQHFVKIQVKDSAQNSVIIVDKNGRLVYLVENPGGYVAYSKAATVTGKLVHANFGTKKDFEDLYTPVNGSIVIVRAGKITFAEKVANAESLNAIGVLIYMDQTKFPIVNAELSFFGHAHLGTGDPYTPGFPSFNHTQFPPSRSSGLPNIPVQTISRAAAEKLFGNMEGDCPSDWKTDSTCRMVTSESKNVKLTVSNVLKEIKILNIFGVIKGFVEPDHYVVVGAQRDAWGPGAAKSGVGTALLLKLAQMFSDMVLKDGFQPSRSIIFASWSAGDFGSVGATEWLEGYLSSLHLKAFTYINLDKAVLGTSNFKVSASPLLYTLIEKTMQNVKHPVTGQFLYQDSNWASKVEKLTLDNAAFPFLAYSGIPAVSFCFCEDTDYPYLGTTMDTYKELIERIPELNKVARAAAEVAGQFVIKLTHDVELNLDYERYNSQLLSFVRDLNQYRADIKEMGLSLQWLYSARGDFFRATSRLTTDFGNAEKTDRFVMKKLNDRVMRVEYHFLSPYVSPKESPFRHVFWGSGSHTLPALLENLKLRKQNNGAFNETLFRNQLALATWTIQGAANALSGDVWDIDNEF
# Assay notes: primary ELISA; also: test concentration or dose not given here
So I've got a bunch of binders here, and I need their RLU values.
Your answer should be a plain number; it is taken to be in RLU.

Exercise: Using known records, supply RLU for CD71-binding FN3 domain SEQ ID NO 403 (designed binder) MLPAPKNLVVSRVTEDSARLSWTAPDAAFDSFYIAYAEPRPDGEAIVLDVPGSERSYDLTGLKPGTEYSVLIHGVKGGLLSSPLVADFTT
Solution: 3.64e+06

Exercise: Item CD71-binding FN3 domain SEQ ID NO 423 (designed binder) MLPAPKNLVVSRVTEDSARLSWTAPDAAFDSFFIGYLEPQPPGEAIALYVPGSERSYDLTGLKPGTEYNVTIQGVKGGFPSEPLVATFTT : provide RLU
Solution: 6.63e+06

Exercise: Output measured RLU for this item: CD71-binding FN3 domain SEQ ID NO 346 (designed binder) MLPAPKNLVVSRVTEDSARLSWTAPDAAFDSFFIGYLEPQPPGEAISLFVPGSERSYDLTGLKPGTEYNVTIQGVKGGFPSDPLNATFNT
Solution: 5e+06

Exercise: Report RLU for CD71-binding FN3 domain SEQ ID NO 401 (designed binder) MLPAPKNLVVSRVTEDSARLSWTAPDAAFDSFFIGYLEPQPPGEAIALWVPGSERSYDLTGLKPGTEYNITIQGVKGGFPSMPLVANFTT
Solution: 5.64e+06
